Reported pKd is given for each of the following variants.
B1: scFv; the commonest letter at each place (parent)
chain 1: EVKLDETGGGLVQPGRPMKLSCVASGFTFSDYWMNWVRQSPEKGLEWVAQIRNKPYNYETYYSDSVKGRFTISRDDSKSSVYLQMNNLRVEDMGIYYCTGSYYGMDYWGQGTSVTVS
chain 2: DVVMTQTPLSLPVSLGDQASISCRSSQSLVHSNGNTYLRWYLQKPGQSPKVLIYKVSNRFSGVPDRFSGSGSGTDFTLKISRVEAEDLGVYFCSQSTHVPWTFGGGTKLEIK

Variants of: B1
ASSAY_NOTES: Kd (Tite-Seq)
CONDITIONS_USED: with fluorescein; format: scFv 4-4-20, heavy + light
pKd: −log10 of the molar value.

Here is how some variants turned out for pKd.
In [3]: df
Out[3]:
           mutant_name  result
0    chain 1 F29A W36H  ≤ 5.00
1         chain 1 Y32H    7.58
2    chain 1 F29N S30Q    6.06
3    chain 1 S30W W36D  ≤ 5.00
4  chain 1 Y102C G109R  ≤ 5.00
5  chain 1 Y102Q M105V  ≤ 5.00

pKd lookup needed for chain 1 S101K Y103T , thanks. ≤ 5.00

pKd lookup needed for chain 1 W36H , thanks. ≤ 5.00

pKd lookup needed for chain 1 S30M M34P , thanks. ≤ 5.00

pKd lookup needed for chain 1 S30M D31F , thanks. 5.25

pKd lookup needed for chain 1 T28A Y32K , thanks. 5.45

pKd lookup needed for chain 1 Y32V M34D , thanks. ≤ 5.00

pKd lookup needed for chain 1 S101G W108R , thanks. ≤ 5.00

pKd lookup needed for chain 1 T28Q W33V , thanks. ≤ 5.00

pKd lookup needed for chain 1 G104E G109C , thanks. ≤ 5.00

pKd lookup needed for chain 1 F29C W36V , thanks. ≤ 5.00

pKd lookup needed for chain 1 G100I G109A , thanks. ≤ 5.00

pKd lookup needed for chain 1 Y102G Y107F W108K , thanks. ≤ 5.00

pKd lookup needed for chain 1 Y102S Y103C , thanks. 7.90

pKd lookup needed for chain 1 Y32K M34F W36H , thanks. ≤ 5.00

pKd lookup needed for chain 1 F29A M34V , thanks. ≤ 5.00
